Target: MNK2a (Homo sapiens, UniProt Q9HBH9)
Construct: made in house
Sequence (Q9HBH9 whole entry): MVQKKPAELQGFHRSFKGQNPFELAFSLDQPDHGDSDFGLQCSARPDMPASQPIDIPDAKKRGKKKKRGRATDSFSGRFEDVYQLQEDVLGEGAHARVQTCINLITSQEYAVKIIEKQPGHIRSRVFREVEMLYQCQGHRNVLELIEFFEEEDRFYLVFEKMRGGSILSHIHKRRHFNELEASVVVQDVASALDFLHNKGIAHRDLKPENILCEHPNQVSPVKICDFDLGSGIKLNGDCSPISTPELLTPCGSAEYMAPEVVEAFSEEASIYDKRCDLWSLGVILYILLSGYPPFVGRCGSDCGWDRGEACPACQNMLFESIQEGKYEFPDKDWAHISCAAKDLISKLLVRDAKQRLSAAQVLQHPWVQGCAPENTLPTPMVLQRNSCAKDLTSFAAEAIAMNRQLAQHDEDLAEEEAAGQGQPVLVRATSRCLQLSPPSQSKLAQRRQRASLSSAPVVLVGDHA
Test: MNK2a in vitro kinase assay (assay 1), ADP-Glo
Format: biochemical
Conditions: preactivated GST-MNK2a, 20 μM ATP, read-out: MNK2 IC50
pIC50: −log10 of the molar value.
measured-quantity: pIC50

CO[C@H]1CC[C@H](Oc2cc(F)ccc2Nc2ncnc3cc(N=S(C)(C)=O)cc(C)c23)CC1 [Example 2.75] = 8.52
Cc1cc(N=S2(=O)CCC(O)CC2)cc2ncnc(Nc3ccc(F)cc3O[C@H]3CCOC3)c12 (stereo partly drawn) [Example 2.97] = 8.70
CCS(C)(=O)=Nc1cc(C)c2c(Nc3ccc(F)cc3OC3CCOC3)ncnc2c1 (single isomer, unassigned) [Example 7.13] = 8.70
